# tested-target: T1, recombinant extracellular domain of CD47 (UniProt Q08722 19-139, limits assumed)
# T1 construct: extracellular domain; Analyte flowed over the captured antibodies in SPR; also called CD47-ECD
# T1 sequence (Q08722 19-139 limits assumed): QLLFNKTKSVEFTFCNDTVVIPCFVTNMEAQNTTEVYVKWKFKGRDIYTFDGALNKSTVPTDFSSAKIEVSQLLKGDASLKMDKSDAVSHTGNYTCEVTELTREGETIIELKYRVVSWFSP
# assay-comment: SPR; antibody captured on anti-human Fc, CD47-ECD flowed 0-100 nM; 1:1 Langmuir
metric-name: pKd
// scale note: pKd = -log10(conc_M); give the bare number

As a guide, the following entries are already answered.
| binder | pKd |
| --- | --- |
| Ab356/Ab1120 (antibody, V domains shown, FR and CDR L2 variant; also called HC Ab356 / LC Ab1120) VH: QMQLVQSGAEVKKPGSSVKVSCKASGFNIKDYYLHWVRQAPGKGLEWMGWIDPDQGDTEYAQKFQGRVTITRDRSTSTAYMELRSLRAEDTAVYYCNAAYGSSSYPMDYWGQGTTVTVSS VL: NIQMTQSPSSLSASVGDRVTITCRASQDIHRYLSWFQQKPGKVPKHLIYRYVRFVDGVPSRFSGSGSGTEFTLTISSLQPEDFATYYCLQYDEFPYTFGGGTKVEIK | 8.99 |
| Ab480/Ab1121 (antibody, V domains shown, FR and CDR L2 variant; Label printed HC first; r442 used; also called HC Ab480 / LC Ab1121) VH: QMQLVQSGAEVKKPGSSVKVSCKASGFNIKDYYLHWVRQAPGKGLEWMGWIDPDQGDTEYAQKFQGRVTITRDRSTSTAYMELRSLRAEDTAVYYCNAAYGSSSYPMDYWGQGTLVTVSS VL: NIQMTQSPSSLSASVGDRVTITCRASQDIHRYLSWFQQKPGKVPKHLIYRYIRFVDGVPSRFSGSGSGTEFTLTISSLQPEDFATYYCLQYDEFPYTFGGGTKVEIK | 8.94 |
| Ab495/Ab480 (antibody, V domains shown, also called LC Ab495 / HC Ab480) VH: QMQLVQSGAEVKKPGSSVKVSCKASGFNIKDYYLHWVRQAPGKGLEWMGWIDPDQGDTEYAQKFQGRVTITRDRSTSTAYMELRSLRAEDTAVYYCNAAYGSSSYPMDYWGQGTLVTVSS VL: NIQMTQSPSSLSASVGDRVTITCKASQDIHRYLSWYQQKPGKAPKHLIYRANRLVSGVPSRFSGSGSGTEFTLTISSLQPEDFATYYCLQYDEFPYTFGGGTKVEIK | 8.88 |

// query Look at this binder and give its reported pKd. Ab495/Ab356 (antibody, V domains shown, also called LC Ab495 / HC Ab356) VH: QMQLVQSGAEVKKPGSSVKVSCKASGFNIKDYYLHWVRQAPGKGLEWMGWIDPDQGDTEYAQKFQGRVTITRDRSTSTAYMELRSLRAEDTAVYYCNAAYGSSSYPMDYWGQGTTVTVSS VL: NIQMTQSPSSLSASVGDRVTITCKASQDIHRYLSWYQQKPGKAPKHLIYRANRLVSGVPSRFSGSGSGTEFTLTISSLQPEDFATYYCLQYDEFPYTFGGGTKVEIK
// result 8.87

// query Same read-out for Ab482/Ab387 (antibody, V domains shown, FR variant of AbParental; also called LC Ab482 / HC Ab387) VH: QMQLVQSGAEVKKPGSSVKVSCKASGFNIKDYYLHWVRQAPGKGLEWMGWIDPDQGDTEYAQKFQGRVTITRDRSTSTAYMELRSLRSEDTAVYYCNAAYGSSSYPMDYWGQGTLVTVSS VL: NIQMTQSPSSMSASVGDRVTITCKASQDIHRYLSWFQQKPGKVPKHLIYRANRLVSGVPSRFSGSGSGTEFTLTISSLQPEDFATYYCLQYDEFPYTFGGGTKVEIK ?
// result 9.26
